Test system: RAW-Dual (murine macrophage reporter line)
Test: NF-kB reporter (SEAP) activity fold change vs agonist alone; higher = enhanced NF-kB activity
Conditions: modulator concentration 10 µM; agonist: LPS 0.1 ug/mL
Assign class by NF-kB reporter: not lower than 1 means Y; lower than 1 means N.

In [3]: df
Out[3]:
                                    molecule                       experimental_system  group_label
 0  CC(C)(C)C1CCC(OC(=O)CCC(=O)O)CC1 (stereo unspecified)  RAW-Dual (murine macrophage reporter line)            N
 1  O=C(NC(=S)Nc1ccc2[nH]c(=O)[nH]c2c1)c1ccc(Cl)cc1  RAW-Dual (murine macrophage reporter line)            Y
 2  O=C(C1COCC(=O)N1Cc1ccccc1)N1CCN(c2cccc(Cl)c2)CC1 (stereo unspecified)  RAW-Dual (murine macrophage reporter line)            Y
 3  CCC(c1ccc(O)cc1)C(CC)c1ccc(O)cc1 (stereo unspecified)  RAW-Dual (murine macrophage reporter line)            N
 4        Cc1ccc2[nH]c3nc(C)cc(C)c3c(=O)c2c1  RAW-Dual (murine macrophage reporter line)            Y
 5                   CC(=O)N[C@@H](CS)C(=O)O  RAW-Dual (murine macrophage reporter line)            Y
 6  CCC(C)NC(=O)C(=O)Nc1cccc(C(F)(F)F)c1 (stereo unspecified)  RAW-Dual (murine macrophage reporter line)            Y
 7              O=C(Oc1ccc2ccccc2c1)c1ccccc1  RAW-Dual (murine macrophage reporter line)            Y
 8  N=C(N)c1ccc(OCCCCCOc2ccc(C(=N)N)cc2)cc1.O=S(=O)(O)CCO.O=S(=O)(O)CCO  RAW-Dual (murine macrophage reporter line)            N
 9  CCCCc1nc(Cl)c(CO)n1Cc1ccc(-c2ccccc2-c2nnn[nH]2)cc1  RAW-Dual (murine macrophage reporter line)            Y
10  CCn1cc(C(=O)O)c(=O)c2cc(F)c(N3CCN(C)CC3)cc21.CS(=O)(=O)O  RAW-Dual (murine macrophage reporter line)            Y

====

Tested on: RAW-Dual (murine macrophage reporter line)
Assay: NF-kB reporter (SEAP) activity fold change vs agonist alone; higher = enhanced NF-kB activity
Conditions: modulator concentration 10 µM; agonist: MPLA […]
Please mark TRUE if the recorded NF-kB reporter is equal to or greater than 1, and FALSE if it falls below.

>>> print(df.to_string())
                                   molecule                       experimental_system  group_label
0  CCOC(=O)C1=C(C)NC(C)=C(C(=O)OC)C1c1ccco1 (stereo unspecified)  RAW-Dual (murine macrophage reporter line)         TRUE
1  COc1cccc2c1C(=O)c1c(O)c3c(c(O)c1C2=O)C[C@@](O)(C(=O)CO)C[C@@H]3O[C@H]1C[C@H](N)[C@H](O)[C@H](C)O1.Cl  RAW-Dual (murine macrophage reporter line)        FALSE
2  CC1(COc2ccc3c(c2)ncn3-c2ccc3cccc(N4CCC(N)CC4)c3n2)COC1  RAW-Dual (murine macrophage reporter line)         TRUE
3      Brc1ccc(Cn2c(CN3CCCC3)nc3ccccc32)cc1  RAW-Dual (murine macrophage reporter line)         TRUE
4  CNC1CCCN(c2c(F)cc3c(=O)c(C(=O)O)cn(C4CC4)c3c2OC)C1 (stereo unspecified)  RAW-Dual (murine macrophage reporter line)         TRUE

====

Tested on: RAW-Dual (murine macrophage reporter line)
Assay: IRF reporter (Lucia luciferase) activity fold change vs agonist alone; higher = enhanced IRF activity
Conditions: modulator concentration 10 µM; agonist: MPLA […]
Please mark criterion met if the recorded IRF reporter is equal to or greater than 1, and criterion not met if it falls below.

>>> print(df.to_string())
                                    compound        group_label
 0  O=C(Cc1ccccc1)NCC(O)Cn1ccccc1=O (configuration not stated)      criterion met
 1     NC1CONC1=O (configuration not stated)      criterion met
 2      COC(=O)CSc1ccc2nnc(-c3ccc(F)cc3)n2n1  criterion not met
 3         Cc1cc(NC(=O)CC(C)C)ccc1N1CCCCC1=O      criterion met
 4                     COCCNCCOc1ccccc1C(C)C      criterion met
 5    Br.CCCc1cc(-c2nc(-c3ccc(C)cc3)cs2)ccn1      criterion met
 6  COc1ccc(C(=O)N2CC(n3cc(CN4CCCC4=O)nn3)C2)cc1F  criterion not met
 7          COC(=O)c1ccc(CN2CCc3ccccc3C2)cc1      criterion met
 8  O=c1oc2c(O)c(O)cc3c(=O)oc4c(O)c(O)cc1c4c23      criterion met
 9  COc1ccc(C2NN(Cc3ccccc3)C3C(=O)N(C)C(=O)C23)cc1 (configuration not stated)      criterion met
10  C#CCCCCCCCCCCCC(O)CC(O)COC(C)=O (configuration not stated)      criterion met

====

Test system: RAW-Dual (murine macrophage reporter line)
Assay: NF-kB reporter (SEAP) activity fold change vs agonist alone; higher = enhanced NF-kB activity
Details: modulator concentration 10 µM; agonist: CpG ODN 1826 0.5 ug/mL
Item-by-item account of NF-kB reporter
quantity: NF-kB reporter

In [3]: df
Out[3]:
                                   compound                       experimental_system        quantity  observed_result
0  O=C(CCCn1nc(-c2ccc(F)cc2)ccc1=O)Nc1cc(Cl)ccc1Cl  RAW-Dual (murine macrophage reporter line)  NF-kB reporter             1.01
1  Cl.N=c1ccn2c(n1)OC1C(O)C(CO)OC12 (stereo not given)  RAW-Dual (murine macrophage reporter line)  NF-kB reporter             1.41
2  COc1ccc(Oc2coc3cc(OC(=O)c4ccc(Cl)c([N+](=O)[O-])c4)ccc3c2=O)cc1  RAW-Dual (murine macrophage reporter line)  NF-kB reporter             0.82
3  C(=C\c1ccccc1)/CN1CCN(C(c2ccccc2)c2ccccc2)CC1  RAW-Dual (murine macrophage reporter line)  NF-kB reporter             1.14
4  COC(=O)C1=C(C)NC(C)=C(C(=O)OC)C1c1ccc(-c2ccc(Cl)cc2Cl)o1  RAW-Dual (murine macrophage reporter line)  NF-kB reporter             1.01

====

Tested on: RAW-Dual (murine macrophage reporter line)
Assay: NF-kB reporter (SEAP) activity fold change vs agonist alone; higher = enhanced NF-kB activity
Conditions: modulator concentration 10 µM; agonist: CpG ODN 1826 0.5 ug/mL
quantity: NF-kB reporter

In [3]: df
Out[3]:
                                   compound        quantity  observed_result
0  COc1ccc(CN2CCN(C(c3ccc(F)cc3)c3ccc(F)cc3)CC2)c(OC)c1OC.Cl.Cl  NF-kB reporter            0.742
1  Cc1cn(C2C=CC(CO)O2)c(=O)[nH]c1=O (stereo unspecified)  NF-kB reporter             1.02
2  Nc1ncnc2c1ncn2C1OC(CO)C(O)C1O (stereo unspecified)  NF-kB reporter            0.951
3  CC(C)CN(C[C@@H](O)[C@H](Cc1ccccc1)NC(=O)O[C@H]1CCOC1)S(=O)(=O)c1ccc(N)cc1  NF-kB reporter             1.51
4              Cc1occc1C(=O)Nc1ccc(F)c(F)c1  NF-kB reporter             1.07
5  CN(C)CC(c1ccc(O)cc1)C1(O)CCCCC1 (stereo unspecified)  NF-kB reporter            0.971

Data origin, for the record: the supplement of paper PMC10646978
